# System under test: Bromodomain-containing protein 4 (Homo sapiens)
# Experimental protocol: Time Resolved Fluorescence Resonance Energy Transfer (TR-FRET) Assay: The binding of compounds to bromodomain BRD4 (44-168), BRD4 (333-460), and BRD4 (1-477 or 44-460) was assessed using a time resolved fluorescent resonance energy transfer binding assay (1), that measures the binding of a fluorescently labeled probe molecule to the bromodomain protein. The bromodomain protein, fluorescent probe molecule (either a biotinylated histone peptide or a fluorescently labeled small molecule), and dose-responsed test compound are incubated together to reach thermodynamic equilibrium. In the absence of a test compound, the bromodomain and small molecule are bound, resulting in a high fluorescent signal. In the presence of a sufficient concentration of inhibitor, this interaction is disrupted resulting in a lost of fluorescent resonance energy transfer.All assay components were dissolved in buffer composition 20 mM Hepes pH 7.5, 150 mM NaCl, 5 mM DTT, 0.005% Tween 20, and 100 ug/ml BSA for BRD4 (1-477 and 44-460). The final concentrations of the bromodomain proteins are 1.6 nM BRD4(44-168), 1 nM BRD4(333-460), and 1 nM BRD4(1-477 or 44-460), and the fluorescent probe molecule is 100 nM, 50 nM, and 7.5 nM respectively. All proteins were biotinylated. A streptavidin labeled with terbium cryptate (Cisbio SA-Tb) was used as detection, and pre-mixed with the bromodomain protein at a final concentration of 0.2 nM. In some instances for BRD4 (44-460), anti-His terbium cryptate was used as a detection. 7.5 nl of dose-responsed test compound or dmso vehicle (0.0375%) was pre-spotted in a black Corning 384 well plate and 10 ul each of bromodomain/detection reagent and fluorescent small molecule solution were added to the plate, and the reaction incubated for 60 min at room temperature. Plates were then read on EnVision plate reader, (λex=340 nm, acceptor λEm=520 nm, and donor λEm=615 nm, LANCE D400 mirror). Time resolved fluorescence intensity measurements were made at both emissions, and the ratio of acceptor/donor was calculated and used for data analysis. All data was normalized to 16 high vehicle wells and 8 low reference control wells, and then a four parameter curve fit was applied:Y=a+((b−a)/(1+(10x/10c)d)Where 'a' is the minimum, 'b' is the Hill slope, 'c' is the IC50, and 'd' is the maximum.
Endpoint: IC50

Task: Note IC50 for the compound shown: Cc1nnn(C)c1-c1cnc2c3cc(C4CCN(C(=O)OC(C)(C)C)CC4)ccc3n([C@H](c3ccccc3)C3CCOCC3)c2c1
Result: < 5 nM

Hello, the source for this data is ChEMBL document CHEMBL5726158, in case you need it.
